- protocolNotes: Stability of the compounds: buffer hydrolysis (half-times, shelf-life)
- Type: physicochemical
- conditionParameters: buffer, pH 9
measuredProperty: half-life (h)
Your answer should be a plain number; it is taken to be in h.

# annotated cases, reported half-life shown
{"compound": "CC[C@H](C(=O)OCc1ccccc1)[C@H](COC(=O)/C=C/C(=O)OC[C@H](Cc1cncn1C)[C@H](CC)C(=O)OCc1ccccc1)Cc1cncn1C [Example 18, O,O'-Fumaroyl (dibenzyl) bispilocarpate]", "unitAnnotation": "h", "half-life": 0.4}
{"compound": "CC[C@H](C(=O)OCc1ccc(COC(=O)[C@@H](CC)[C@H](COC(C)=O)Cc2cncn2C)cc1)[C@H](COC(C)=O)Cc1cncn1C [Example 9]", "unitAnnotation": "h", "half-life": 34}
{"compound": "CC[C@H](C(=O)OCc1ccccc1)[C@H](COC(=O)CCC(=O)OC[C@H](Cc1cncn1C)[C@H](CC)C(=O)OCc1ccccc1)Cc1cncn1C [Example 17, O,O'-Succinyl (dibenzyl) bispilocarpate]", "unitAnnotation": "h", "half-life": 28}

Now let's try a different one.
Record CC[C@H](C(=O)OCc1ccccc1)[C@H](COC(=O)CCCCC(=O)OC[C@H](Cc1cncn1C)[C@H](CC)C(=O)OCc1ccccc1)Cc1cncn1C [Example 15, O,O'-Adipoyl (dibenzyl) bispilocarpate] . Reported half-life: 70

###

The reader will find reported half-life values listed item by item below.
- protocolNotes: Stability of the compounds: buffer hydrolysis (half-times, shelf-life)
- Assay type: physicochemical
- conditionParameters: buffer, pH 7.4
Your answer should be a plain number; it is taken to be in days.

# annotated cases, reported half-life shown
{"compound": "CC[C@H](C(=O)OCc1ccccc1)[C@H](COC(=O)/C=C/C(=O)OC[C@H](Cc1cncn1C)[C@H](CC)C(=O)OCc1ccccc1)Cc1cncn1C [Example 18, O,O'-Fumaroyl (dibenzyl) bispilocarpate]", "dataValue": 0.25}
{"compound": "CC[C@H](C(=O)OCc1ccc(COC(=O)[C@@H](CC)[C@H](COC(C)=O)Cc2cncn2C)cc1)[C@H](COC(C)=O)Cc1cncn1C", "dataValue": 11.4}
{"compound": "CC[C@H](C(=O)OCc1ccccc1)[C@H](COC(=O)CCC(=O)OC[C@H](Cc1cncn1C)[C@H](CC)C(=O)OCc1ccccc1)Cc1cncn1C [Example 17, O,O'-Succinyl (dibenzyl) bispilocarpate]", "dataValue": 10.5}

Now let's try a different one.
Record CC[C@H](C(=O)OCc1ccccc1)[C@H](COC(=O)CCCCC(=O)OC[C@H](Cc1cncn1C)[C@H](CC)C(=O)OCc1ccccc1)Cc1cncn1C [Example 15, O,O'-Adipoyl (dibenzyl) bispilocarpate] . Reported half-life: 27.3

###

The reader will find reported half-life values listed item by item below.
- protocolNotes: Stability of the compounds: buffer hydrolysis (half-times, shelf-life)
- Type: physicochemical
- conditionParameters: pH 4.2; buffer pH 4.20, ionic strength 0.5, 37°C; read-out: Half-times in buffers at 37°C, T½, pH 4.20 (converted)
Your answer should be a plain number; it is taken to be in days.

# annotated cases, reported half-life shown
{"molecule": "CC[C@H](C(=O)OCCCCCOC(=O)[C@@H](CC)[C@H](CO)Cc1cncn1C)[C@H](CO)Cc1cncn1C [Example 6]", "half-life, days": 3.04}
{"molecule": "CCCCC(=O)OC[C@H](Cc1cncn1C)[C@H](CC)C(=O)OCc1ccccc1 [valeryl, benzyl, reference compound]", "half-life, days": 356}
{"molecule": "CC[C@H](C(=O)OCCCCOC(=O)[C@@H](CC)[C@H](CO)Cc1cncn1C)[C@H](CO)Cc1cncn1C [Example 7]", "half-life, days": 5}
{"molecule": "CC[C@H](C(=O)OCc1ccccc1)[C@H](COC(C)=O)Cc1cncn1C [acetyl, benzyl, reference compound]", "half-life, days": 320}
{"molecule": "CC[C@H](C(=O)OCc1cccc(COC(=O)[C@@H](CC)[C@H](CO)Cc2cncn2C)c1)[C@H](CO)Cc1cncn1C [Example 2]", "half-life, days": 2.03}

Record CC[C@H](C(=O)OCCCCCCCOC(=O)[C@@H](CC)[C@H](CO)Cc1cncn1C)[C@H](CO)Cc1cncn1C [Example 4] . Reported half-life: 3.41

Record CC[C@H](C(=O)OCc1ccc(COC(=O)[C@@H](CC)[C@H](CO)Cc2cncn2C)cc1)[C@H](CO)Cc1cncn1C [Example 1] . Reported half-life: 1.57

###

- protocolNotes: Stability of the compounds: buffer hydrolysis (half-times, shelf-life)
- Type: physicochemical
- conditionParameters: buffer pH 9.00, ionic strength 0.5, 37°C; read-out: Half-times in buffers at 37°C, T½, pH 9.00 (converted)
measuredProperty: half-life (min)
Your answer should be a plain number; it is taken to be in min.

# annotated cases, reported half-life shown
{"molecule": "CC[C@H](C(=O)OCCCCCCCOC(=O)[C@@H](CC)[C@H](CO)Cc1cncn1C)[C@H](CO)Cc1cncn1C [Example 4]", "dataValue": 18}
{"molecule": "CCCCC(=O)OC[C@H](Cc1cncn1C)[C@H](CC)C(=O)OCc1ccc(COC(=O)[C@@H](CC)[C@H](COC(=O)CCCC)Cc2cncn2C)cc1 [Example 12]", "dataValue": 420}

Now let's try a different one.
Record CC[C@H](C(=O)OCCCCOC(=O)[C@@H](CC)[C@H](CO)Cc1cncn1C)[C@H](CO)Cc1cncn1C [Example 7] . Reported half-life: 10

###

- protocolNotes: Stability of the compounds: buffer hydrolysis (half-times, shelf-life)
- Assay type: physicochemical
- conditionParameters: buffer pH 6.00, ionic strength 0.5, 37°C; read-out: Half-times in buffers at 37°C, T½, pH 6.00 (converted)
- Experimental: The stability of the test compounds were tested with buffer hydrolyses. The ionic strength (µ) of the buffers was 0.5, the pH-values used 4.2, 6.0, 7.4 and 9.0 and the temperatures used 37°C, 50 °C, 60 °C and 70 °C. […] From the degradation constant (k) obtained at the desired temperature the shelf-life-time t10% (t10% = 0.104/k) which indicates the time during which 10% of the drug has degraded may be calculated. […]
# if measured half-life < 20 h: Satisfied  # else: Not satisfied

{"molecule": "CC[C@H](C(=O)OCCCCCCOC(=O)[C@@H](CC)[C@H](CO)Cc1cncn1C)[C@H](CO)Cc1cncn1C [Example 5]", "classification": "Not satisfied"}
{"molecule": "CC[C@H](C(=O)OCc1ccccc1)[C@H](COC(C)=O)Cc1cncn1C [acetyl, benzyl, reference compound]", "classification": "Not satisfied"}
{"molecule": "CC[C@H](C(=O)OCc1cccc(COC(=O)[C@@H](CC)[C@H](CO)Cc2cncn2C)c1)[C@H](CO)Cc1cncn1C [Example 2]", "classification": "Satisfied"}

# next molecule below
q: # TODO verify half-life < 20 h strictly for this molecule: CC[C@H](C(=O)OCCCCCCCOC(=O)[C@@H](CC)[C@H](CO)Cc1cncn1C)[C@H](CO)Cc1cncn1C [Example 4]
a: Not satisfied

###

The reader will find reported Partition coefficient log P values listed item by item below.
- protocolNotes: Lipophilicity: partition coefficient (octanol-buffer) and capacity factor by RP-HPLC
- Assay type: physicochemical
- conditionParameters: determined from the equation log k'= 0.182 Log P - 0.4086 (RP-HPLC retention)

# annotated cases, reported Partition coefficient log P shown
{"molecule": "CC[C@H](C(=O)OCc1ccc(COC(=O)[C@@H](CC)[C@H](COC(=O)c2ccccc2)Cc2cncn2C)cc1)[C@H](COC(=O)c1ccccc1)Cc1cncn1C [Example 14]", "Partition coefficient log P": "6.4929^2"}
{"molecule": "CC[C@H](C(=O)OCc1ccccc1)[C@H](COC(=O)CCCC(=O)OC[C@H](Cc1cncn1C)[C@H](CC)C(=O)OCc1ccccc1)Cc1cncn1C [Example 16, O,O'-Glutaryl (dibenzyl) bispilocarpate]", "Partition coefficient log P": "5.4093^2"}

Record CC[C@H](C(=O)OCc1ccccc1)[C@H](COC(=O)c1ccc(C(=O)OC[C@H](Cc2cncn2C)[C@H](CC)C(=O)OCc2ccccc2)cc1)Cc1cncn1C [Example 19] . Reported Partition coefficient log P: 7.0000^2

Record CCCCC(=O)OC[C@H](Cc1cncn1C)[C@H](CC)C(=O)OCc1ccc(COC(=O)[C@@H](CC)[C@H](COC(=O)CCCC)Cc2cncn2C)cc1 [Example 12] . Reported Partition coefficient log P: 7.0165^2

Record CCCC(=O)OC[C@H](Cc1cncn1C)[C@H](CC)C(=O)OCc1ccc(COC(=O)[C@@H](CC)[C@H](COC(=O)CCC)Cc2cncn2C)cc1 [Example 11] . Reported Partition coefficient log P: 5.5604^2

###

- protocolNotes: Stability of the compounds: buffer hydrolysis (half-times, shelf-life)
- Format: physicochemical
- conditionParameters: buffer; 50 °C, pH 6.00; read-out: Chemical hydrolysis t½, pH 6.00 (converted)
The reader will find reported half-life values listed item by item below.
Your answer should be a plain number; it is taken to be in days.

{"molecule": "CC[C@H](C(=O)OCCCCCOC(=O)[C@@H](CC)[C@H](COC(=O)C1CC1)Cc1cncn1C)[C@H](COC(=O)C1CC1)Cc1cncn1C [Example 21]", "unitAnnotation": "days", "dataValue": 98.7}

Now let's try a different one.
Record CC[C@H](C(=O)OCCCCCCOC(=O)[C@@H](CC)[C@H](COC(=O)C1CC1)Cc1cncn1C)[C@H](COC(=O)C1CC1)Cc1cncn1C [Example 20] . Reported half-life: 142
